experiment-description: Cmax in Balb/c mouse at 20 mg/kg, po by LC-MS/MS analysis
Assay type: ADME, organism-based
Parameters: dose 20 mg/kg, route oral
measurement-conditions: in vivo

{"line-notation": "CC(C)(C)N1CCN(C(=O)c2ccnc(Nc3cc4[nH]c(-c5cccc(C(F)(F)F)c5)nc4cn3)c2)CC1", "Cmax [nM]": 40}

###

experiment-description: Metabolic stability in mouse liver microsomes assessed as parent compound remaining at 0.1 uM after 60 mins in presence of NADPH by LC-MS/MS analysis
Type: ADME, Microsome
measurement-conditions: read-out: Stability
I'd appreciate it if you marked entries 1 when remaining at 1 h, 0.1 µM is lower than 60% and 0 when it is not.

{"line-notation": "FC(F)(F)c1ccc(-c2nc3cnc(Nc4ccc(N5CCN(CC6CC6)CC5)cn4)cc3[nH]2)cn1", "answer-label": 0}
{"line-notation": "Fc1ccc(Nc2cc3[nH]c(Nc4cc(N5CCNCC5)ccn4)nc3cn2)cc1C(F)(F)F", "answer-label": 0}
{"line-notation": "FC1(F)CC(c2nc3cnc(Nc4ccc(N5CCN(CC6CC6)CC5)cn4)cc3[nH]2)C1", "answer-label": 1}
{"line-notation": "CC(C)(C)N1CCN(C(=O)c2ccnc(Nc3cc4[nH]c(-c5cccc(C(F)(F)F)c5)nc4cn3)c2)CC1", "answer-label": 1}
{"line-notation": "Fc1ccc(-c2nc3cnc(Nc4ccc(N5CCN(CC6CC6)CC5)cn4)cc3[nH]2)cc1F", "answer-label": 1}
{"line-notation": "O=C(c1ccnc(Nc2cc3[nH]c(-c4ccc(F)c(C(F)(F)F)c4)nc3cn2)c1)N1CCN(C2CC2)CC1", "answer-label": 0}
{"line-notation": "Fc1ccc(-c2nc3cnc(Nc4ccc(C5CCNCC5)cn4)cc3[nH]2)cc1F", "answer-label": 0}
{"line-notation": "Fc1ccc(Nc2cc3[nH]c(Nc4ccc(N5CCNCC5)cn4)nc3cn2)cc1C(F)(F)F", "answer-label": 1}
{"line-notation": "Fc1ccc(-c2nc3cnc(Nc4ccc(N5CCN(CC6CC6)CC5)cn4)cc3[nH]2)cc1C(F)(F)F", "answer-label": 1}
{"line-notation": "Fc1ccc(-c2nc3cnc(Nc4ccc(N5CCNCC5)cn4)cc3[nH]2)cc1F", "answer-label": 0}

Where do these numbers come from? They come from ChEMBL document CHEMBL4308849.
